# targetDesc: Prostaglandin E synthase (Homo sapiens)
# Sequence (O14684 whole entry): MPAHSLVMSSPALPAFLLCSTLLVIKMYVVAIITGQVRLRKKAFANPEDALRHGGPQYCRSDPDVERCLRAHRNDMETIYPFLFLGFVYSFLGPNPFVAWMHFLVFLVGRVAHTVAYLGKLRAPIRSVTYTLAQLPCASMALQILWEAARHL
# assayOverview: Inhibition of mPGES-1 isolated from microsomes of interleukin-1 beta-stimulated human A549 cells using PGH2 as substrate preincubated for 15 mins followed by substrate addition measured after 1 min by RP-HPLC analysis
readoutKind: pIC50
Friendly reminder that pIC50 comes from taking -log10 of the concentration in mol/L.

stdin: # lookup: pIC50 of O=C(O)c1ccc(N(CC2CCCCC2)S(=O)(=O)c2ccc(Oc3ccccc3)cc2)cc1
stdout: 5.59

stdin: // pIC50 lookup, key: O=C(O)c1ccc(N(Cc2cccc(Oc3ccccc3)c2)S(=O)(=O)c2ccc(-c3ccccc3)cc2)cc1
stdout: 5.42

stdin: Which pIC50 value is on record for CCCCCCCCN(c1ccc(C(=O)O)cc1)S(=O)(=O)c1ccc(-c2ccccc2)cc1 ?
stdout: 5.30

stdin: Could you tell me which pIC50 is on file for O=C(O)c1ccc(N(Cc2ccccc2)S(=O)(=O)c2ccc(-c3ccccc3)cc2)cc1 ?
stdout: 5.40

stdin: Which measured pIC50 value corresponds to CC(c1cc2ccccc2s1)N(O)C(N)=O (stereo not given) [ZILEUTON] ?
stdout: 5.62

====

Can you tell me IC50 for the items I'm about to list?
# targetDesc: UniProtKB P09917
# Sequence (P09917 whole entry): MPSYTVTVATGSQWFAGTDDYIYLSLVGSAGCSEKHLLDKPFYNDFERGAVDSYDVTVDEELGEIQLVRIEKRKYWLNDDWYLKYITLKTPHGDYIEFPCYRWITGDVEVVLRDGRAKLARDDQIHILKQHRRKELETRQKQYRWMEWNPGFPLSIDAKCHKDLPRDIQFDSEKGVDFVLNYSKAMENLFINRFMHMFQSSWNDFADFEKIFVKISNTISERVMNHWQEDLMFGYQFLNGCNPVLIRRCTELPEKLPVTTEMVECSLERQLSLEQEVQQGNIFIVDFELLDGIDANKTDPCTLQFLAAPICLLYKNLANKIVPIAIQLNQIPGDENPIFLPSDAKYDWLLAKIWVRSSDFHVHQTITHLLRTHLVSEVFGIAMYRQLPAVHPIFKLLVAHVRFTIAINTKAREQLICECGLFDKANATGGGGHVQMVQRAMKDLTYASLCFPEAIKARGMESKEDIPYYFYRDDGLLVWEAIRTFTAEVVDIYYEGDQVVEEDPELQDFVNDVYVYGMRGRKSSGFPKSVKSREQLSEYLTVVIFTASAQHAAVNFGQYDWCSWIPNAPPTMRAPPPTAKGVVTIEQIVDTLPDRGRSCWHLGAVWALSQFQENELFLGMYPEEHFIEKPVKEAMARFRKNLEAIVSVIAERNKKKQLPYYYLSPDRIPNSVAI
# assayOverview: Inhibition of 5-LO in human neutrophils using arachidonic acid as substrate assessed as reduction in 5-LO product formation preincubated for 15 mins followed by substrate addition measured after 10 mins in presence of Ca2+ ionophore A23187 by HPLC analysis
Return type: number; implicit unit µM.

stdin: Look at this compound and give its reported IC50. O=C(O)c1ccc(N(Cc2ccc3ccccc3c2)C(=O)c2ccc(-c3ccccc3)cc2)cc1
stdout: 1.7

stdin: Name the reported IC50 value associated with the compound Cc1ccc(CN(c2ccc(C(=O)O)cc2)S(=O)(=O)c2ccc(-c3ccccc3)cc2)cc1
stdout: 1

stdin: Requested read-out: IC50. Entry: O=C(O)c1ccc(N(Cc2cccs2)S(=O)(=O)c2ccc(-c3ccccc3)cc2)cc1
stdout: 4.4

stdin: Item O=C(O)c1ccc(N(Cc2cccc(OCc3ccccc3)c2)S(=O)(=O)c2ccc(-c3ccccc3)cc2)cc1 has what recorded IC50?
stdout: 0.4

stdin: Given O=C(O)CCc1ccc(N(Cc2ccc3ccccc3c2)S(=O)(=O)c2ccc(-c3ccccc3)cc2)cc1 , state its recorded IC50.
stdout: 1.8

stdin: I'd like to know its IC50. The compound in question is O=C(O)c1ccc(N(CC2CCCCC2)S(=O)(=O)c2ccc(-c3ccccc3)cc2)cc1
stdout: 3.4

stdin: Any idea what its IC50 is? The compound is Cc1ccc(S(=O)(=O)N(Cc2ccc(Cl)c(Cl)c2)c2ccc(C(=O)O)cc2)cc1
stdout: 2.4

stdin: If you can, please state the reported IC50 value of O=C(O)c1ccc(N(Cc2ccoc2)S(=O)(=O)c2ccc(-c3ccccc3)cc2)cc1 .
stdout: 8.4

stdin: Fill blank: measured IC50 of the compound CC(C)(C)c1ccc(CN(c2ccc(C(=O)O)cc2)S(=O)(=O)c2ccc(C(C)(C)C)cc2)cc1 is ____.
stdout: 0.7

stdin: GET /values?readout=IC50&item= O=C(O)c1ccc(N(Cc2ccc(OCc3ccccc3)cc2)S(=O)(=O)c2ccc(-c3ccccc3)cc2)cc1
stdout: 0.5

stdin: Which value of IC50 has been reported for O=C(O)c1ccc(N(Cc2cnc3ccccc3c2)S(=O)(=O)c2ccc(-c3ccccc3)cc2)cc1 in the records?
stdout: 2.1

stdin: Recorded IC50 of CCCCCCCCN(c1ccc(C(=O)O)cc1)S(=O)(=O)c1ccc(-c2ccccc2)cc1 , please.
stdout: 0.5

stdin: # lookup: IC50 of O=C(O)c1ccc(N(Cc2ccc3c(c2)OCCO3)S(=O)(=O)c2ccc(-c3ccccc3)cc2)cc1
stdout: 1.1

stdin: I have this compound here, Cc1ccc(S(=O)(=O)N(Cc2ccc(Oc3ccccc3)cc2)c2ccc(C(=O)O)cc2)cc1 , and I need its recorded IC50.
stdout: 3.5

stdin: Fill blank: measured IC50 of the compound O=C(O)c1ccc(N(Cc2ccc3ccccc3c2)S(=O)(=O)c2ccc(-c3ccccc3)cc2)cc1 is ____.
stdout: 1.1

stdin: Requested read-out: IC50. Entry: O=C(O)c1ccc(N(Cc2ccccc2)S(=O)(=O)c2ccc(-c3ccccc3)cc2)cc1
stdout: 3.3

stdin: Which IC50 reading was recorded for the compound CC(C)(C)C#Cc1ccc(S(=O)(=O)N(Cc2ccc(C(C)(C)C)cc2)c2ccc(C(=O)O)cc2)cc1 ?
stdout: 0.9

stdin: Param item = CCCCN(c1ccc(C(=O)O)cc1)S(=O)(=O)c1ccc(-c2ccccc2)cc1 ; retrieve measured IC50.
stdout: 4
